# Tested system: KDM5A (Homo sapiens, UniProt P29375)
# Construct: Full length KDM5A enzyme was expressed and purified inhouse; made in house
# Sequence (P29375 whole entry): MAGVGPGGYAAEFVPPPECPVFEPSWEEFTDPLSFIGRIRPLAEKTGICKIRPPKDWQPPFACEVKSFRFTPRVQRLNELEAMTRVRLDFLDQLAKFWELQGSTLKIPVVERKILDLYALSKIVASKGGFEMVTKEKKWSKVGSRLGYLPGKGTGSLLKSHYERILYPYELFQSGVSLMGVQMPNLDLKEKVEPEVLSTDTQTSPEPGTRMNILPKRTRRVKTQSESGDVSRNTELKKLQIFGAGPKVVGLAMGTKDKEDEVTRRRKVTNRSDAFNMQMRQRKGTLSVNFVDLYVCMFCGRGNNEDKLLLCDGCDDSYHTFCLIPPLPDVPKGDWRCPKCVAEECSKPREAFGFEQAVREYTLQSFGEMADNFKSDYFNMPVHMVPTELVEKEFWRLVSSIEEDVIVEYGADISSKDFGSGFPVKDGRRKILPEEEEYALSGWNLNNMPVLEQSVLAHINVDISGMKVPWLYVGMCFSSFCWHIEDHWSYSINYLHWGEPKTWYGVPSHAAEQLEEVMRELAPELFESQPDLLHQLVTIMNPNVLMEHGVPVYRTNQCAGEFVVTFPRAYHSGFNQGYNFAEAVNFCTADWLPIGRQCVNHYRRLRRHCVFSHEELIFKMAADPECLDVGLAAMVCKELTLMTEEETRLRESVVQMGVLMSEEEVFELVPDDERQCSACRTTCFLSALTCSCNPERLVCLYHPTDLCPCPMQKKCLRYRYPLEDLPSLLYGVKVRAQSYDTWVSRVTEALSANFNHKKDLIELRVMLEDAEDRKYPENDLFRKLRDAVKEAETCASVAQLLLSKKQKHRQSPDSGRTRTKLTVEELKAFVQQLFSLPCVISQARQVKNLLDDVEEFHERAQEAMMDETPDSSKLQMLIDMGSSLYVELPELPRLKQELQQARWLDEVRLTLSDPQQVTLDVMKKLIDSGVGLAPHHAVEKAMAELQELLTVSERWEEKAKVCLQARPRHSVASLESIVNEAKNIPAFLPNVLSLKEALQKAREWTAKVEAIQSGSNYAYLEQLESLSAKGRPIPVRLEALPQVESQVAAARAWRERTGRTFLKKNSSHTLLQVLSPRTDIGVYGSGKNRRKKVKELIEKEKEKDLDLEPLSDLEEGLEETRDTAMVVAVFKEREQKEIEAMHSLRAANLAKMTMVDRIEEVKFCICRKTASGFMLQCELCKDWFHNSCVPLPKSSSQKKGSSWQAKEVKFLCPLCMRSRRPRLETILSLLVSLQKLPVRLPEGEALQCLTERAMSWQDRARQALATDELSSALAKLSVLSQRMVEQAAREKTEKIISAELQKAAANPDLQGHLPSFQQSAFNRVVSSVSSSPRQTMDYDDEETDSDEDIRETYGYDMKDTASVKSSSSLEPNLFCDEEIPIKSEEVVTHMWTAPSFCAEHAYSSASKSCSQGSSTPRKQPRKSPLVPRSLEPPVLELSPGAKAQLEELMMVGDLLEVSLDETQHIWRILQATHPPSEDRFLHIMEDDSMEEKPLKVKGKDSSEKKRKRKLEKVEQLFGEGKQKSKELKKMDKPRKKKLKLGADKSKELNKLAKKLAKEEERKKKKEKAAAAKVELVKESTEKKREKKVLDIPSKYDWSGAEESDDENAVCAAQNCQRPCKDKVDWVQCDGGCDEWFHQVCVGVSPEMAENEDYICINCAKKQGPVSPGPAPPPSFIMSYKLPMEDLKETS
# Experiment summary: KDM5 enzyme assay, KDM5A HTRF (Example 463)
# Format: biochemical
# Condition parameters: compounds of Examples 1-432; read-out: Example 463 Assay KDM5A HTRF IC50
Measured attribute: pIC50
Answers are plain numbers, as −log10 of the molar value.

Please review the following examples before continuing.
1) CC(C)c1c(-c2ccc3c(c2)CC(C)(C)O3)[nH]c2c(C#N)cnn2c1=O [Example 260]; 7.44
2) CC(c1c(-c2ccccc2)[nH]c2c(C#N)cnn2c1=O)C1CC1 (stereo not drawn) [Example 39]; 6.89
3) N#Cc1cnn2c(=O)c(CCF)c(-c3ccccc3)[nH]c12 [Example 222]; 7.92
4) CCc1c(-c2cccc(N3CCCC3=O)c2)[nH]c2c(C#N)cnn2c1=O [Compound 421]; 7.72
5) CCOc1ccc(-c2[nH]c3c(C#N)cnn3c(=O)c2C(C)C)cc1Cl [Example 119]; 7.72
6) CC(C)c1c(-c2ccc(C(F)(F)F)c(C3CC3)c2)[nH]c2c(C#N)cnn2c1=O [Compound 354]; 7.11
7) CC(=O)Nc1cc(-c2ccccc2)cc(-c2cc(=O)n3ncc(C#N)c3[nH]2)c1 [Example 44]; 6.43
8) CCc1c(C)n(CC2CC2)c2c(C#N)cnn2c1=O [Example 193]; 6.07

Req: // Input: CC(C)c1c(-c2cnn(CCF)c2)[nH]c2c(C#N)cnn2c1=O [Compound 352] . Output its pIC50 only.
Resp: 7.57

* * *

# Tested system: GASC1 (Homo sapiens)
# Construct: 6×His tagged recombinant GASC1 (N 350aa) was purified from E. Coli BL21(DE3); 6xHis
# Sequence (Q9H3R0 1-350 limits assumed): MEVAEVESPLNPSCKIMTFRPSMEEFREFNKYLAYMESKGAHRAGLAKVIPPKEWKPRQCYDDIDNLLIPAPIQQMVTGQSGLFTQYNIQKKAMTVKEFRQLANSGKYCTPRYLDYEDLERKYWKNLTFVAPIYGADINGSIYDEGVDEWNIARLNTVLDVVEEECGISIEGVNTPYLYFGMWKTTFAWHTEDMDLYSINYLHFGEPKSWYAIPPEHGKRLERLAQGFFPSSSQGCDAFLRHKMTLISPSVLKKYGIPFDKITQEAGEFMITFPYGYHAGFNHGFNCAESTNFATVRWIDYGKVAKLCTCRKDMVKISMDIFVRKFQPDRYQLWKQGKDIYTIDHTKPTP
# Experiment summary: GASC1 demethylation assay on H3K9Me3 peptide (RapidFire HT-MS)
# Condition parameters: read-out: GASC1 Inhibition
# Text: 6×His tagged recombinant GASC1 (N 350aa) was purified from E. Coli BL21(DE3) to near homogeneity. […] All the reactions were read by RapidFire™ HT-MS platform developed in BioTrove Inc, and the method has been described in detail previously (Assay and Drug Development Technologies, 2004; 2(4): 373-381). Briefly, at BioTrove, plates were thawed and immediately analyzed using RapidFire™ system coupled to a Sciex API4000 triple quadrapole mass spectrometer. […]
Would you mind telling me the reported IC50 of each entry?

Please review the following examples before continuing.
1) CCOC(=O)Cc1c(C)[nH]c2c(C#N)c(C)nn2c1=O; ≥ 50 µM
2) N#Cc1cnn2c(=O)c3ccccc3[nH]c12; 1 to 10 µM

# return IC50 for each item in the list
1. CCOC(=O)Cc1c(C)[nH]c2c(C#N)cnn2c1=O
2. CCOC(=O)c1[nH]c2c(C#N)cnn2c(=O)c1CC
3. CCc1c(Cc2ccccc2)[nH]c2c(C#N)cnn2c1=O
4. Cc1nn2c(=O)c(C(C)C)c(C)[nH]c2c1C#N
5. Cn1c2c(c(=O)n3ncc(C#N)c13)CCCC2
6. N#Cc1cnn2c(=O)c3c([nH]c12)CCC3

Resp:
1. ≥ 50 µM
2. ≤ 1 µM
3. ≤ 1 µM
4. 1 to 10 µM
5. ≥ 50 µM
6. 1 to 10 µM
